For each record, write down the corresponding Cell Viability (% inhibition).
Test system: (HEPG2)
measurement.context: human, 24 h, 30 μM
The answer is to be given in % inhibition; state only the numeric part.

-- ask Return the recorded Cell Viability (% inhibition) value; entry: COc1c(C)cc2c(c1O)[C@@H]1C3[C@@H]4SC[C@]5(NC(C)Cc6c5[nH]c5ccc(F)cc65)C(=O)COC[C@@H](c5c6c(c(C)c(OC(C)=O)c54)OCO6)N3[C@@H](O)[C@H](C2)N1C (stereo partly drawn) [Compound 42]
-- reply 67

-- ask Return Cell Viability (% inhibition) (reported value) for this molecule: COc1c(C)cc2c(c1O)[C@@H]1C3[C@@H]4SC[C@]5(NCCc6c5[nH]c5cc(F)ccc65)C(=O)COC[C@@H](c5c6c(c(C)c(OC(C)=O)c54)OCO6)N3[C@@H](O)[C@H](C2)N1C (stereo partly drawn) [Compound 32]
-- reply 39

-- ask Please list Cell Viability (% inhibition) recorded for the molecule COc1c(C)cc2c(c1O)[C@@H]1C3[C@@H]4SC[C@]5(NCCc6c5[nH]c5ccc(F)cc65)C(=O)COC[C@@H](c5c6c(c(C)c(OC(C)=O)c54)OCO6)N3[C@@H](O)[C@H](C2)N1C (stereo partly drawn) [Compound 35]
-- reply 23

-- ask Supply measured Cell Viability (% inhibition) of COc1ccc2c3c([nH]c2c1)[C@@]1(CS[C@@H]2c4c(OC(C)=O)c(C)c5c(c4[C@H](COCC1=O)N1C2[C@H]2c4c(cc(C)c(OC)c4O)C[C@@H]([C@@H]1O)N2C)OCO5)NCC3 (stereo partly drawn) [Compound 34] in your reply.
-- reply 45

-- ask Return the recorded Cell Viability (% inhibition) value; entry: C=COC(=O)Oc1c(OC)c(C)cc2c1[C@@H]1C3[C@@H]4SC[C@]5(NCCc6c5[nH]c5ccccc65)C(=O)COC[C@@H](c5c6c(c(C)c(OC(C)=O)c54)OCO6)N3[C@@H](O)[C@H](C2)N1C (stereo partly drawn) [Compound 47]
-- reply 18

-- ask Note Cell Viability (% inhibition) for the molecule shown: COc1c(C)cc2c(c1O)[C@@H]1C3[C@@H]4SC[C@]5(NC(C)Cc6c5[nH]c5ccccc65)C(=O)COC[C@@H](c5c6c(c(C)c(OC(C)=O)c54)OCO6)N3[C@@H](O)[C@H](C2)N1C (stereo partly drawn) [Compound 44]
-- reply 73

The origin of these recorded values is patent US7763615B2.
